Overview of reported pIC50 across a group of compounds:
test system: A. thaliana; test: A. thaliana root and hypocotyl extension after 6 days; type: in vivo; conditions: Arabidopsis thaliana, 144 h; Hypocotyl, 6 days; read-out: IC50 hypocotyl extension
On this scale, pIC50 is minus log10 of a concentration expressed in M (mol/L).

CC1(C)CC(=O)C(C(=O)Cc2ccccc2)C(=O)C1 :: 5.09

The reported pIC50 of the compound Cc1cc(O)c(C(=O)/C=C/c2ccc(F)cc2)c(=O)o1 was 6.10

Short answer for CC1C(=O)C(C(=O)CCc2ccccc2)C(=O)C(C)(C)C1=O (stereo not drawn) : pIC50 was 4.23

----------
test system: ACO ablated D. discoideum cells (ACO-); assay: Growth sensitivity of ACO-mutant D. discoideum cells to MyA; type: cell-based; conditions: Dictyostelium discoideum; ACO- D. discoideum cells
ASSAY ENDPOINT: IC50 (µM)
Give a bare numeral; the unit µM is implied.

# IC50 of CC1C(=O)C(C(=O)CCc2ccccc2)C(=O)C(C)(C)C1=O (stereo not shown) = 29.9
